These entries and their values trace back to patent US20250368742A1.

# experimental.system: T1, MICA004-ECD-HISAvi (human)
# T1 construct: also called MICA004 polypeptide
# T1 chain: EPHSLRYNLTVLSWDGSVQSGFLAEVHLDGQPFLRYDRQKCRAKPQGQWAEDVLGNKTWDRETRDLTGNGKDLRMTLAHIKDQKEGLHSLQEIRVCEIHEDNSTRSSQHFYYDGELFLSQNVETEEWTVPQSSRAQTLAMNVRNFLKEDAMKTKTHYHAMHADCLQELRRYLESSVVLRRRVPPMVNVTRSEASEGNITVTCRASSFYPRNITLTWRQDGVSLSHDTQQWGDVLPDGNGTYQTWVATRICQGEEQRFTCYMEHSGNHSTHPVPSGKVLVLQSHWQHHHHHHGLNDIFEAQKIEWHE
# protocol.details: BLI (GatorPrime); antibody on anti-hIgG Fc probe, monomeric antigen in solution;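 note: binding kinetics of anti-MICA/B antibodies measured by biolayer interferometry, with dissociation followed for about 10 min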
endpoint.label: pKd
Interpret pKd as the negative base-10 log of the concentration measured in mol/L.

// field: pKd; key: 3F9 (antibody, human IgG1, kappa, V domains shown, also called benchmark 3F9) VH: QVQLVESGGGLVKPGGSLRLSCAASGFTFSNYAMSWIRQAPGKGLEWVSYISPGGDYIYYADSVKGRFTISRDNAKNSLYLQMNSLRAEDTAVYYCTTDRRHYGSYAMDYWGQGTLVTVSS VL: DIVMTQSPLSLPVTPGEPASISCRSSKSLLHSNLNTYLYWFLQKPGQSPQILIYRMSNLASGVPDRFSGSGSGTAFTLKISRVEAEDVGVYYCMQHLEYPFTFGPGTKLEIKR ; value = 8.97

Please fill in: pKd reported for 1D5 (antibody, human IgG1, kappa, V domains shown, also called ID5) VH: EIQLQQSGPELVKPGASVKVSCKASGYAFTSQNIYWVKQSHGKSLEWIGYIEPYNVVPMYNPKFKGKATLTVDKSSSSAYIHLNSLTSEDSAIYYCARSGSSNFDYWGQGTTLTVSS VL: EIILTQSPTTMAASPGEKITITCSASSSISSHYLHWYQQKSGFSPKLLIYRTSNLASGVPARFSGSGSGTSYSLTIGTMEAEDVATYYCQQGSSLPLTFGAGTKVEIKR = 10.00

Please fill in: pKd reported for B10G5 (antibody, human IgG1, kappa, V domains shown, also called B10G5-2; P2B10G5) VH: EVQLEESGPGLVKPSQSLSLTCTVTGYSITSDYAWNWIRQFPGNKLEWMGYISYSGSTNYNPSLKSRISITRDTSKNQFFLQLNSVITEDTATYYCARGGTYFDYWGQGTTLTVSS VL: DIVLTQTTSYLSVSLGGRVTIACKASAHINNWLAWYQQKPGNAPRLLISDATSLETGVPSRFSGSGSGKDYTLSITSLQTEDVATYYCQHYWSTPWTFGGGTKLEIKR = 8.94
